- System: LC3-II
- experiment.notes: LC3-II production capacity at 10 μM (Table 4)
- Format: cell-based
- condition.label: Homo sapiens, 12 h
Here, each record is paired with measured fold induction at 10 µM data.

- molecule: "COc1ccc(C(F)(F)F)cc1-c1cc(C(C)(C)O)on1 [Example 32]"
  fold induction at 10 µM: 0.9
- molecule: "C=C(C)Cc1ccc(OC)c(-c2cc(CN3CCNCC3)on2)c1 [Example 67]"
  fold induction at 10 µM: 22.7
- molecule: "C=CCc1ccc(OC(F)(F)F)c(-c2cc(CN3CCN(C)CC3)on2)c1 [Example 52]"
  fold induction at 10 µM: "> 13"
- molecule: "CCCc1ccc(OC)c(-c2cc(C(C)(C)O)on2)c1 [Example 40]"
  fold induction at 10 µM: 1.6
- molecule: "COc1cc(C(F)(F)F)ccc1-c1cc(CO)on1 [Example 35]"
  fold induction at 10 µM: 1.1
- molecule: "CCCc1ccc(OC)c(-c2cc(CN3CCn4ccnc4C3)on2)c1 [Example 57]"
  fold induction at 10 µM: 1.1
- molecule: "C=CCc1ccc(OC(F)(F)F)c(-c2cc(CO)on2)c1 [Example 43]"
  fold induction at 10 µM: 19.7
- molecule: "COCCc1ccc(OC)c(-c2cc(CN3CCN(C)CC3)on2)c1 [Example 62]"
  fold induction at 10 µM: 2.4
- molecule: "C=CCc1ccc(OC)c(-c2cc(CN3CCNCC3)on2)c1 [Example 29]"
  fold induction at 10 µM: 5.8
- molecule: "CCCc1ccc(OC)c(-c2cc(CN3CCNCC3)on2)c1 [Example 30]"
  fold induction at 10 µM: 2.3
- molecule: "COc1ccc(C(C)C)cc1-c1cc(CN2CCNCC2)on1 [Example 47]"
  fold induction at 10 µM: 2.7
- molecule: "C=C(C)Cc1ccc(OC)c(-c2cc(CN3CCN(C(=O)OC(C)(C)C)CC3)on2)c1 [Example 66]"
  fold induction at 10 µM: "> 18"
- molecule: "COc1ccc(N2CCOCC2)cc1-c1cc(CO)on1 [Example 38]"
  fold induction at 10 µM: 1.2
- molecule: "C=C(C)Cc1ccc(OC)c(-c2cc(CO)on2)c1 [Example 68]"
  fold induction at 10 µM: 7.7
- molecule: "C=CCc1ccc(OC)c(-c2cc(C(C)(C)O)on2)c1 [Example 39]"
  fold induction at 10 µM: 0.7
- molecule: "C=CCc1ccc(-c2cc(CN3CCNCC3)on2)c(OC)c1 [Example 49]"
  fold induction at 10 µM: 1.1
- molecule: "COc1ccc(C(C)C)cc1-c1cc(CN2CCN(C(=O)OC(C)(C)C)CC2)on1 [Example 46]"
  fold induction at 10 µM: 1.5
- molecule: "COc1ccc(C(C)C)cc1-c1cc(CN2CCN(C(C)=O)CC2)on1 [Example 63]"
  fold induction at 10 µM: 1.9
- molecule: "COc1ccc(C(C)C)cc1-c1cc(CO)on1 [Example 45]"
  fold induction at 10 µM: 2.5
- molecule: "C=CCc1ccc(OC(F)(F)F)c(-c2cc(CN3CCN(C(=O)OC(C)(C)C)CC3)on2)c1 [Example 50]"
  fold induction at 10 µM: "> 25"
- molecule: "COc1ccc(C(F)(F)F)cc1-c1cc(CN2CCNCC2)on1 [Example 34]"
  fold induction at 10 µM: 2.5
- molecule: "COc1ccc(C(F)(F)F)cc1-c1cc(CO)on1 [Example 31]"
  fold induction at 10 µM: 0.8
- molecule: "CCCc1ccc(OC)c(-c2cc(CN3CCc4sccc4C3)on2)c1 [Example 56]"
  fold induction at 10 µM: 1.5
- molecule: "COc1ccc(CC=C(C)C)cc1-c1cc(CN2CCN(C)CC2)on1 [Example 69]"
  fold induction at 10 µM: 5
- molecule: "COc1ccc(C(F)(F)F)cc1-c1cc(CN2CCN(C)C(=O)C2)on1 [Example 37]"
  fold induction at 10 µM: 2.2
- molecule: "CCCc1cc(-c2cc(CN3CCNCC3)on2)c(OC)cc1F [Example 58]"
  fold induction at 10 µM: 3.2
- molecule: "CCCc1ccc(OC)c(-c2cc(CN3CCC(C(=O)O)CC3)on2)c1 [Example 55]"
  fold induction at 10 µM: 1.8
- molecule: "COc1ccc(C(F)(F)F)cc1-c1cc(COCC(=O)O)on1 [Example 36]"
  fold induction at 10 µM: 2.3
- molecule: "COc1ccc(CCO)cc1-c1cc(CN2CCN(C)CC2)on1 [Example 61]"
  fold induction at 10 µM: 0.9
- molecule: "C=CCc1ccc(OC)c(-c2cc(CN3CCN(C)CC3)on2)c1 [Example 41]"
  fold induction at 10 µM: 2.3
- molecule: "CCCc1ccc(OC)c(-c2cc(CN3C[C@@H](C)O[C@@H](C)C3)on2)c1 [Example 53]"
  fold induction at 10 µM: 0.9
